Task for the reader: assign each of the following compounds its reported melting point.

Value sought for every listed compound: melting point.
1. COc1cc2c(cc1O)CC(C)N(Cc1cc(OC)c(OC)c(OC)c1)C2 (stereo unspecified)
2. COc1ccc(C(=O)c2c(C)n(C(C)=O)c(=O)n2C(C)=O)cc1
3. Cc1ccccc1-c1ccc(C(=O)N2Cc3ccc(C(=O)NC(C)CCc4ccccc4)n3Cc3ccccc32)cc1C (stereo unspecified)
4. CCc1c(-c2ccc(O)cc2)c2ccc3c(NC(C)=O)ccc1n32
5. CCOC(=O)c1ccc2[nH]cc(CCNC(=O)OC(C)(C)C)c2c1

1: 127 to 132 °C; 2: 123 to 125 °C; 3: 152 to 154 °C; 4: 147 to 149 °C; 5: 170 to 171 °C

// each compound listed below needs its melting point
1. Cc1ccc(S(=O)(=O)NC(=O)C2C(=O)CC(CC(C)C)CC2=O)cc1 (stereo unspecified)
2. Cc1cc(Cn2nc(C(F)(F)F)cc2C(F)(F)F)ccc1NC(=O)c1cccc(Cl)c1C(=O)NC(C)(C)C(=O)O
3. CC(C)(O)CCn1c(=O)n(C(=O)N[C@H](C(N)=O)C(C)(C)C)c2ccccc21
4. CCOC(=O)c1n[nH]c2ncc(I)cc2c1=O
5. COCCn1nc(CC(C)C)c2cn(Cc3cccc4ccccc34)cc2c1=O

["128 to 130 °C", "179 to 184 °C", "248 °C", "238 to 242 °C", "96 to 98 °C"]

For every record below, what is its melting point?
1. CC(C)(C)OC(=O)c1ccccc1NC(=O)CN1C(=O)c2ccccc2C1=O
2. CCCc1cc2c(cc1CC#N)OCO2
3. Cc1ccccc1C(=NC(=Nc1ccccc1)C1(C)CCCCC1)Nc1ccc(F)cc1
4. Clc1ccc(C2=CCCC2)cn1
5. O=C(O)c1ccc2c(c1)S(=O)(=O)c1ccccc1C=C2
6. CC(C)(C)OC(=O)CNNC(=O)OCc1ccccc1
7. CCOC(=O)C1=C2C(=CC3=C(CCCC3)N2O)SC1C (stereo unspecified)
8. Fc1ccc(CC(c2ccccc2)C(F)(F)F)cc1 (stereo unspecified)

1. 159 °C
2. 66 to 67 °C
3. 210 to 211 °C
4. 59 to 60 °C
5. 268 to 270 °C
6. 61 to 62 °C
7. 135 to 136 °C
8. 143 to 145 °C

The following compounds each have a reported value; give each one's melting point.
1. O=C(c1ccccc1)N(c1ccccc1)c1ccc(O)cc1
2. CC(C)NC(=O)[C@@H]1CCCN1C(=O)[C@H](C)NC(=O)OCc1ccccc1
3. Cc1ccc(SCc2ncon2)cc1

1. 257 to 260 °C
2. 124 to 126 °C
3. 53 °C

----------
Kindly supply the reported melting point values for the records listed here.

Could you tell me melting point for each of these molecules? They are listed below.
1. Cc1nc2c(O)c(CCC(=O)c3cccs3)c(C(=O)N(C)C)cc2n1C
2. Nc1nc(N)nc(-c2ccc(NS(=O)(=O)c3cc(Cl)ccc3Cl)cc2)n1
3. O=C(NCc1cccnc1)N(c1ccccc1)c1ccccc1
4. CCCCCCCCCCCCCCCCCC(=O)NCC(O)C(C)(O)CCCC(C)CCCC(C)CCCC(C)C (stereo not given)

1. 233 to 235 °C
2. 230 to 233 °C
3. 143 °C
4. 47 to 48 °C

Batch request: melting point per item, same order as input.
1. COc1cc2c(cc1O)CC(C)(C)NC2
2. Cn1c(C(F)(F)F)cc(=O)n(-c2cc([N+](=O)[O-])c(Br)cc2F)c1=O
3. O=C(O)C(=O)c1ccc(OCC(=O)N2CCN(c3ccccc3)CC2)cc1
4. COCc1c(Cl)ccc(C(=O)c2cnoc2C2CC2)c1S(C)(=O)=O

["170 to 173 °C", "124 to 125 °C", "188 to 192 °C", "83.6 to 84.2 °C"]

# batch size: 7; output melting point per entry
1. C[C@H](NC(=O)OC(C)(C)C)C(=O)N(CC(=O)N1CCC[C@H]1C(=O)OCc1ccccc1)C1Cc2ccccc2C1
2. O=C1CCC(c2ccc(OCCBr)cc2)CC1
3. CC(C)(C)c1csc(NC(=O)Nc2ccc(N3CCN(C(=O)Nc4ccc(OCCO)cc4C(F)(F)F)CC3)cc2)n1
4. O=C(c1ccccc1)[C@]1([N+](=O)[O-])[C@H](c2ccccc2)[C@H]2C[C@H](O)[C@@H]1C2 (relative stereo)
5. CCCc1c(OCCCOc2ccc(Cl)c(Cl)c2)ccc2c1OC(CCC(=O)O)(CCC(=O)O)CC2=O
6. COc1nc(C)c([N+](=O)[O-])cc1C
7. C[C@H]1C(=O)OCN1C(=O)OCc1ccccc1

1: 135 to 136 °C; 2: 91 to 92 °C; 3: 130 to 132 °C; 4: 168 to 169 °C; 5: 136 to 137 °C; 6: 85.9 to 90.5 °C; 7: 89 to 91 °C
